Ref: patent US20240182445A1

- Target Of Assay: UniProtKB P05177
- Sequence (P05177 whole entry): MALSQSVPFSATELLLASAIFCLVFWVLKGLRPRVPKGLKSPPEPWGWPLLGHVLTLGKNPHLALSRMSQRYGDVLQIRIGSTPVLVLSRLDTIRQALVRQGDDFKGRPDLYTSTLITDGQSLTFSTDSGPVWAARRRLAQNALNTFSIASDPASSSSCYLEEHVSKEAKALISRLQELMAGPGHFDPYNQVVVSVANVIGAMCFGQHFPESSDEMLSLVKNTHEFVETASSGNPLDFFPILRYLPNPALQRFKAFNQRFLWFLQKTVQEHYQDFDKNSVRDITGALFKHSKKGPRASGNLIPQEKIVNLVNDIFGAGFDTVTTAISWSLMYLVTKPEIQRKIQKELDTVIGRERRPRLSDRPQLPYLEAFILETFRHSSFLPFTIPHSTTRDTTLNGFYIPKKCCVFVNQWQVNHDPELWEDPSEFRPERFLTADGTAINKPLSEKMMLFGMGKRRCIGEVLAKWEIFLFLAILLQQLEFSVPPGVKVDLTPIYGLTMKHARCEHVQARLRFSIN
- Measurement Protocol: P450 inhibition 1A2
- Format: in vitro ADME
Assay Readout: IC50 (µM)
Quick note: give the figure in µM, leave out the unit.

Task: Look up IC50 of "CC(=O)N[C@H]1CC[C@@H](n2ncc(Cl)c2C(=O)Nc2ncc(C#Cc3ccccc3)cc2C)CC1" and report it.
Output: 8.6

----------
- Target Of Assay: human TREK-1 (Homo sapiens)
- Construct: expressed in transfected cells
- Sequence (O95069 whole entry): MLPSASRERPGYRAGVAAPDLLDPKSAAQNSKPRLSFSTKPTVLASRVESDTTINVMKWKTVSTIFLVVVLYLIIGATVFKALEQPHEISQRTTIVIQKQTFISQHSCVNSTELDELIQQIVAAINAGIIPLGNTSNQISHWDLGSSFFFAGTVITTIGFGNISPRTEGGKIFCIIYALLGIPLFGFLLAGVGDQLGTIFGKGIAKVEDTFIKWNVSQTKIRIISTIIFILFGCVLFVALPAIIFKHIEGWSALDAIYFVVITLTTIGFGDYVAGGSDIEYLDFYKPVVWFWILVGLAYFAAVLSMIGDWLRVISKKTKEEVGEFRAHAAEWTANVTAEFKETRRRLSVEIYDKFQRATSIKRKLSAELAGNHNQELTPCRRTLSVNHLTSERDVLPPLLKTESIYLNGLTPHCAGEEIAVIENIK
- Measurement Protocol: TREK-1 Thallium (Tl+) flux assay, Method 1
- Format: cell-based
- Protocol Conditions: TREK-1 Thallium (Tl+) flux assay; values without footnote *12 are Method 1
Assay Readout: pIC50
Remember, pIC50 is on a log scale: it is -log10 of the molar concentration.

The examples below pair each entry with its known result.
INSERT INTO results (molecule, target_of_assay, experimental_value) VALUES
  ('CC(=O)N[C@H]1CC[C@H](n2ncc(Cl)c2C(=O)Nc2ncc(C#Cc3ccccc3)cc2C)CC1 [Compound 47]', 'human TREK-1 (Homo sapiens)', 6.89),
  ('CC(=O)N1CCC(n2ncc(Cl)c2C(=O)Nc2ncc(C#Cc3ccccc3)cc2F)C1 (stereo not drawn) [Compound 121]', 'human TREK-1 (Homo sapiens)', 6.68),
  ('CC(C1CCN(C(=O)OC(C)(C)C)CC1)n1ncc(Cl)c1C(=O)Nc1ncc(C#Cc2ccccc2)cc1F (stereo not drawn) [Compound 78]', 'human TREK-1 (Homo sapiens)', 6.80),
  ('CC(=O)N1CCC(n2ncc(Cl)c2C(=O)Nc2ncc(C#Cc3ccccc3)cc2C)CC1C (stereo not drawn) [Compound 61]', 'human TREK-1 (Homo sapiens)', 6.82),
  ('Cc1cc(C#Cc2ccccc2)cc(F)c1NC(=O)c1c(Cl)cnn1C1CC(C#N)C1 (stereo not drawn) [Compound 194]', 'human TREK-1 (Homo sapiens)', 6.52);

Task: Look up pIC50 of CCC(=O)N1CCC(n2ncc(Cl)c2C(=O)Nc2ncc(C#Cc3ccccc3)cc2F)CC1 [Compound 34] and report it.
Output: 6.96

Task: Look up and state reported pIC50 for Cc1cc(C#Cc2ccc(F)cc2)cnc1NC(=O)c1c(Cl)cnn1[C@H]1CC[C@@H](NC(=O)C2CC2)CC1 [Compound 165]
Output: 6.59

Task: Specify measured pIC50 for CC(=O)N1CC[C@@H](n2ncc(Cl)c2C(=O)Nc2ncc(C#Cc3ccccc3)cc2C)C[C@@H]1C (single isomer, unassigned) [Compound 86] .
Output: 6.77

Task: Tell me its pIC50 given CC(=O)N1CCC(n2ncc(Cl)c2C(=O)Nc2ncc(C#Cc3ccccc3)cc2C)CC1 [Compound 5] as the entry.
Output: 7.15

Task: Entry Cc1cc(C#Cc2ccccc2)cnc1NC(=O)c1c(Cl)cnn1CC1(C#N)CCN(C(=O)C(C)C)CC1 [Compound 49] needs its pIC50 filled in; supply it.
Output: 6.89

Task: Fill in reported pIC50 for this entry: Cc1cc(C#Cc2ccccc2)cnc1NC(=O)c1c(Cl)cnn1C[C@H]1CCN(C(=O)C(C)C)C[C@H]1F [Compound 108]
Output: 6.72

Task: Please indicate pIC50 recorded for CC(=O)N1CC[C@H](n2ncc(Cl)c2C(=O)Nc2ncc(C#Cc3ccccc3)cc2F)C1 [Compound 129]
Output: 6.66

Task: Read the entry Cc1cc(C#Cc2ccccc2)cnc1NC(=O)c1c(Cl)cnn1C1CCn2nccc2C1 (stereo not drawn) [Compound 9] and write its reported pIC50.
Output: 6.85

Task: Entry CC(=O)N1CC(n2ncc(Cl)c2C(=O)Nc2ncc(C#Cc3ccccc3)cc2F)C1 [Compound 40] needs its pIC50 filled in; supply it.
Output: 6.89

Task: Specify reported pIC50 for the molecule shown: CC(=O)N1CC[C@@H](n2ncc(Cl)c2C(=O)Nc2ncc(C#Cc3ccccc3)cc2C)[C@H](F)C1 [Compound 30]
Output: 7.00
